Target: purified CMPK2 protein (WT) (Homo sapiens, UniProt Q5EBM0)
Construct: the N‐terminus was truncated by 22 amino acids; 6xHis (C)
Sequence (Q5EBM0 22-449): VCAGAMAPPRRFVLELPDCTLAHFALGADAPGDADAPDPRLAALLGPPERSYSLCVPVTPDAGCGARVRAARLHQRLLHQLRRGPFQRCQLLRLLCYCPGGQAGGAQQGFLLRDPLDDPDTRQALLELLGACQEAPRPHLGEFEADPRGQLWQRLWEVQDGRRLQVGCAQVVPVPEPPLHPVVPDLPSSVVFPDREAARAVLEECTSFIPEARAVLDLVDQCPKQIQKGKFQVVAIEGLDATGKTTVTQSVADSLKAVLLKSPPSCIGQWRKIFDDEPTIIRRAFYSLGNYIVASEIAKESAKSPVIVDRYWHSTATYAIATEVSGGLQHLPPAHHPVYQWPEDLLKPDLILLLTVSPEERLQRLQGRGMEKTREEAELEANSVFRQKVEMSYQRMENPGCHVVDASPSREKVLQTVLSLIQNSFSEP
Test: Microscale thermophoresis (MST) binding to CMPK2

compound: COc1c2ccc(-c3ccccc3)oc-2cc(=O)c1C [compound 73, Dracohodin perochlorate]
Kd [nM]: 350
